Assay: Caspase-3/7 induction in CHO-K1 cells by small molecules, qHTS assay (AID 1346980); also: nearly all actives have a fitted effect of over 15% in size
Conditions: CHO-K1 caspase-3/7 induction, Caspase-Glo luminescence, 17 h; series mostly up to 92.4 µM
Calls of active or inactive are those of the source. Calls follow the shape of the dose curve; as a rule, active = well fitted activation curve with a large enough effect in the repeat runs; inconclusive = weak or mixed curves; inactive = flat fitted curve, though single readings scatter.
Readout: caspase-3/7 activation

Worked set:
# Compound, caspase-3/7 activation
measured = [
    ("Cc1ccc(C(=O)O)cc1", "inactive"),
    ("CC(=O)Oc1cc2c(s1)CCN(C(C(=O)C1CC1)c1ccccc1F)C2 (stereo unspecified)", "inactive"),
    ("Cc1cccc(C)c1NC(=O)c1ccc(N)cc1", "inactive"),
    ("O=C(Nc1ccc2c(O)c(N=Nc3ccc(N=Nc4ccc(S(=O)(=O)O)cc4)cc3)c(S(=O)(=O)O)cc2c1)c1ccccc1", "inactive"),
    ("O=C(O)c1cc(N=Nc2ccc([N+](=O)[O-])cc2)ccc1O", "inactive"),
]

Okay, now this compound:
Query block: Input "Oc1c(I)cc(Cl)c2cccnc12" , output reported caspase-3/7 activation.
Result block: inactive

Data origin: PubChem BioAssay (Tox21)
